Target: T1, human C-KIT, full length, on cells (human, UniProt P10721 26-976)
T1 construct: full-length cDNA stably transfected in CHO-K1; also used here for endogenous C-KIT of TF-1 cells; also called human C-KIT+ CHO-K1 cells; C-KIT on TF-1 cells
Experiment: flow cytometry, C-KIT-transfected CHO-K1 cells, IgG1 format
Field: EC50 (read off the curve). Provide a value for each of the binders that follow.

Sample humanized h37M, human IgG1 (antibody, V domains shown, human IgG1; terbium-labelled as the tracer of the HTRF assays; also called C-KIT-h37M; h37M-IgG1) VH: QVQLVQSGAEVKKPGASVKLSCKASGYTFTDYYINWVRQAPGKGLEWIARIYPGSGNTYYNEKFKGRATLTADKSTSTAYMQLSSLRSEDTAVYFCARGVYYFDYWGQGTTVTVSS VL: DIVMTQSPSSLSASVGDRVTITCKASQNVRTNVAWYQQKPGKAPKALIYSASYRYSGVPDRFTGSGSGTDFTLTISSLQPEDFADYFCQQYNSYPRTFGGGTKVEIK — what was its EC50 (read off the curve)?
~0.2 µg/mL

Sample MH5.24 (antibody, IgG1, V domains shown, IgG1; also called C-KIT-MH5.24) VH: QVQLVQSGAEVKKPGASVKVSCKASGYTFTDFYMNWVRQAPGQGLEWMGRIYPASGNTYYAQKFQGRVTMTRDTSTSTVYMELSSLRSEDTAVYYCARGVWYFDTWGQGTLVTVSS VL: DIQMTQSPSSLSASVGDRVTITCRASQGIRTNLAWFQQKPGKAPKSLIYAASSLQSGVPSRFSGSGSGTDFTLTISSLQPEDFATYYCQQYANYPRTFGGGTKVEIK — what was its EC50 (read off the curve)?
~0.2 µg/mL

Sample MH5.1 (antibody, IgG1, V domains shown, IgG1; also called C-KIT-MH5.1) VH: QVQLVQSGAEVKKPGASVKVSCKASGYTFTNYYMNWVRQAPGQGLEWMGRIYPGTGNTYYAQKFQGRVTMTRDTSTSTVYMELSSLRSEDTAVYYCARGVWYYDYWGQGTLVTVSS VL: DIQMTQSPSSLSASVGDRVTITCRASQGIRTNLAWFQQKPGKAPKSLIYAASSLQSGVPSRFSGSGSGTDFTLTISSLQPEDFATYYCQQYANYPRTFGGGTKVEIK — what was its EC50 (read off the curve)?
~0.2 µg/mL

Sample MH5.2 (antibody, IgG1, V domains shown, IgG1; also called C-KIT-MH5.2) VH: QVQLVQSGAEVKKPGASVKVSCKASGYTFTDFYMNWVRQAPGQGLEWMGRIYPGTGNTYYAQKFQGRVTMTRDTSTSTVYMELSSLRSEDTAVYYCARGVWYYDYWGQGTLVTVSS VL: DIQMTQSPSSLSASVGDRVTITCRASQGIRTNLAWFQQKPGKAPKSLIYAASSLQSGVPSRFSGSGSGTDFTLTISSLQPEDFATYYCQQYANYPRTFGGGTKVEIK — what was its EC50 (read off the curve)?
~0.2 µg/mL

Sample MH5.22 (antibody, IgG1, V domains shown, IgG1; also called C-KIT-MH5.22) VH: QVQLVQSGAEVKKPGASVKVSCKASGYTFTDFYMNWVRQAPGQGLEWMGRIYPASGNTYYAQKFQGRVTMTRDTSTSTVYMELSSLRSEDTAVYYCARGVWYYDYWGQGTLVTVSS VL: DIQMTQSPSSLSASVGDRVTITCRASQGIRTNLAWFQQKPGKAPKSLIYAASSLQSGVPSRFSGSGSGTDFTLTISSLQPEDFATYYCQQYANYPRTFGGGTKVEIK — what was its EC50 (read off the curve)?
~0.4 µg/mL
